Please consider the recorded IC50 for Full length DGKα (D21-10BG, SignalChem) (Homo sapiens) in what follows.
value_type: IC50 (nM)

• CC[C@H]1CN(C(C)c2ccc3nc(C)sc3c2F)[C@H](C)CN1c1cc(=O)n(C)n2cc(CC#N)nc12 (single isomer, unassigned) [Compound A119b] = 340
• CC#CCc1cn2c(n1)c(N1C[C@@H](CC)N(C(C)c3ccc4nc(C)sc4n3)C[C@@H]1CC)cc(=O)n2C (single isomer, unassigned) [Compound A115b] = 2.7
• CC[C@H]1CN(C(C)c2ccc3nc(C)sc3c2)[C@H](CC)CN1c1cc(=O)n(C)n2cc(CC#N)nc12 (single isomer, unassigned) [Compound A56b] = 659
• CC[C@H]1CN(C(C)c2ccc3nc(C4CC4)sc3n2)[C@H](CC)CN1c1cc(=O)n(C)n2cc(CC#N)nc12 (single isomer, unassigned) [Compound A109a] = 1490
• CC[C@H]1CN(C(C)c2ccncc2)[C@H](CC)CN1c1cc(=O)n(C)n2cc(CC#N)nc12 (stereo partly drawn) = 42
• CC[C@H]1CN(C(C)c2ccc3scnc3c2F)[C@H](CC)CN1c1cc(=O)n(C)n2cc(CC#N)nc12 (single isomer, unassigned) [Compound A66a] = 105

---

- target_of_assay: Full length DGKζ (in-house protein M1-V929) (Homo sapiens, UniProt Q13574)
- Construct: His (N); TEV cleavage site (N)
- Sequence (Q13574 1-929 isoform Q13574-4): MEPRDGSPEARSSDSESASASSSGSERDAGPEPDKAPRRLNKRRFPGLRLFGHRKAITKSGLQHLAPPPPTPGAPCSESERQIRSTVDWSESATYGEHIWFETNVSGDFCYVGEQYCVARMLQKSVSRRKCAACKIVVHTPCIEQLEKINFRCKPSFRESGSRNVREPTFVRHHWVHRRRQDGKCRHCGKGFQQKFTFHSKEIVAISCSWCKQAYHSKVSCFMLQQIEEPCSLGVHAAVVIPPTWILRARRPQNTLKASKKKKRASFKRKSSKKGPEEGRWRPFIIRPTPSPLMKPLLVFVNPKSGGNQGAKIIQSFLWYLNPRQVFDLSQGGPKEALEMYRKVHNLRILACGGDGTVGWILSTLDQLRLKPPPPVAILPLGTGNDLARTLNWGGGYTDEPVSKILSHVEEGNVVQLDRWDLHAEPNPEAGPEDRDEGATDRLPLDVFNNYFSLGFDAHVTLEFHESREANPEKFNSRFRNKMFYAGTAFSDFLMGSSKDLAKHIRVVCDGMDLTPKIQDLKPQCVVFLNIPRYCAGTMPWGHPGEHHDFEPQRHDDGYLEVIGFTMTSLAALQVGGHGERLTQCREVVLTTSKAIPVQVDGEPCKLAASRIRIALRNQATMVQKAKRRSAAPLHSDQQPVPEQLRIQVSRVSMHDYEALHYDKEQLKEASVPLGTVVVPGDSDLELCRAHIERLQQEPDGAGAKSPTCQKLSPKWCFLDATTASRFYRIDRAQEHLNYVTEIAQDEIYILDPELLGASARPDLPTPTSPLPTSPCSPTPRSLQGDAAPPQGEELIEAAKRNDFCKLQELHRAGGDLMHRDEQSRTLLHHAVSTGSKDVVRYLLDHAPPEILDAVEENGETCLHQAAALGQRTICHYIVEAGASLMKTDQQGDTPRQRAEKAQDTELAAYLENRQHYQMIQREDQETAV
- assay_remarks: Biochemical DGK IC50 assay (ADP-Glo, lipid micelle substrate), DGKζ
- condition_label: 0.5 nM enzyme, 140 μM ATP, 80 μM DAG, 1 hour preincubation, 1 hour reaction, room temperature, read-out: IC50s for DGKζ
pIC50: −log10 of the molar value.
value_type: pIC50

• CC(c1ccc2nccnc2c1)N1C[C@H](C)N(c2cc(=O)n(C)n3cc(CO)nc23)C[C@H]1C (stereo partly drawn) = 5.05
• CCC(c1ccc2nc(C)sc2n1)N1C[C@H](CC)N(c2cc(=O)n(C)n3cc(CC#N)nc23)C[C@H]1C (single isomer, unassigned) [Compound A98b] = 7.35
• COc1cnc2ccc(C(C)N3C[C@H](C)N(c4cc(=O)n(C)n5cc(CC#N)nc45)C[C@H]3C)cc2n1 (stereo partly drawn) = 7.74
• CC[C@H]1CN(C(C)c2ccc(C3CC3)nc2)[C@H](CC)CN1c1cc(=O)n(C)n2cc(CC#N)nc12 (single isomer, unassigned) [Compound A37b] = 6.27
• CC[C@H]1CN(C(C)c2ccc3ncsc3c2)[C@H](CC)CN1c1cc(=O)n(C)n2cc(CC#N)nc12 (stereo partly drawn) [Compound A53] = 8.19
• CC[C@H]1CN(C(C)c2ccc3nc(C)sc3n2)[C@H](CC)CN1c1cc(=O)n(C)n2cc(CC#N)nc12 (single isomer, unassigned) [Compound A58b] = 8.14
• CC[C@H]1CN(C(C)c2ccc3scnc3c2F)[C@H](CC)CN1c1cc(=O)n(C)n2cc(CC#N)nc12 (single isomer, unassigned) [Compound A66b] = 5.84
• CC[C@H]1CN(C(C)c2ccc3nc(C4CC4)sc3n2)[C@H](CC)CN1c1cc(=O)n(C)n2cc(CC#N)nc12 (single isomer, unassigned) [Compound A109a] = 5.74
• COC(C)c1cn2c(n1)c(N1C[C@@H](C)N(C(C)c3ccc4nccnc4c3)C[C@@H]1C)cc(=O)n2C (stereo partly drawn) = 4.96
• CC[C@H]1CN(C(C)c2ccc(C(F)(F)F)cc2F)[C@H](CC)CN1c1cc(=O)n(C)n2cc(CC#N)nc12 (single isomer, unassigned) [Compound A92a] = 7.28
• CC[C@H]1CN(C(C)c2ccc3ncsc3c2F)[C@H](CC)CN1c1cc(=O)n(C)n2cc(CC#N)nc12 (single isomer, unassigned) [Compound A62a] = 8.07
• CC[C@H]1CN(C(C)c2ccc3scnc3c2)[C@H](CC)CN1c1cc(=O)n(C)n2cc(CC#N)nc12 (single isomer, unassigned) [Compound A65a] = 8.15
